# smiles, melting point
rows = [
    ("O=c1oc2cc(N3CCNCC3)ccc2cc1Nc1ncccn1", "193 to 195 °C"),
    ("Cc1cn2cc(-c3cc4ccc(CCN5CCOCC5)cc4oc3=O)nc2c(C)n1", "180 to 184 °C"),
    ("Cc1nn2cc(-c3cc4ccc(N5C[C@@H](C)N[C@@H](C)C5)cc4oc3=O)nc2s1", "225 to 228 °C"),
    ("Cc1ccn2cc(-c3cc4ccc(N(C)CCN(C)C)cc4oc3=O)nc2n1", "188 to 191 °C"),
    ("Cc1cc2cc(-c3cc4ccc(N5CCCN(C)CC5)cc4oc3=O)oc2c(C)n1", "243 to 245 °C"),
]

* * *

Reported melting point values for the following compounds.
endpoint: melting point

# compound, endpoint, dataValue
records = [
    ("C[C@@H]1CN(c2ccc3cc(-c4cc5ccccn5n4)c(=O)oc3c2)C[C@H](C)N1 [Compound 189]", "melting point", "188 to 190 °C"),
    ("CCN1CCN(c2ccc3cc(-c4cn5cc(Cl)nc(C)c5n4)c(=O)oc3c2)CC1 [Compound 766]", "melting point", "228 to 230 °C"),
    ("Cc1nc(Cl)cn2cc(-c3cc4ccc(N5CCN6CCC[C@H]6C5)cc4oc3=O)nc12 [Compound 711]", "melting point", "260 to 262 °C"),
    ("C[C@@H]1CN(c2ccc3cc(-c4cn5ccsc5n4)c(=O)oc3c2)CCN1 [Compound 204]", "melting point", "233 to 237 °C"),
    ("CC1(C)CN(c2ccc3cc(-c4cn5cc(F)ccc5n4)c(=O)oc3c2)CCN1 [Compound 508]", "melting point", "182 to 185 °C"),
    ("CCN1CCCN(c2ccc3cc(-c4cc5c(C)nc(C)cn5c4)c(=O)oc3c2)CC1 [Compound 671]", "melting point", "166 to 169 °C"),
    ("Cc1cc(Cl)cn2cc(-c3cc4ccc(N5CCN(C)CC5)cc4oc3=O)nc12 [Compound 264]", "melting point", "238 °C"),
    ("CCCN1CCN(c2ccc3cc(-c4cn5cc(C)ccc5n4)c(=O)oc3c2)CC1 [Compound 207]", "melting point", "220 to 222 °C"),
    ("Cc1cn2cc(-c3cc4ccc(N5CCN(C)CC5)cc4oc3=O)cc2c(C)n1 [Compound 644]", "melting point", "127 to 131 °C"),
    ("Cc1nn2cc(-c3cc4ccc(N5CCNCC5)cc4oc3=O)nc2s1 [Cpd 441]", "melting point", "288 to 290 °C"),
    ("Cc1cn2cc(-c3cc4c(F)cc(N5CCCN(C)CC5)cc4oc3=O)nc2c(C)n1 [Compound 614]", "melting point", "223 to 225 °C"),
    ("CN1CCCN(c2ccc3cc(-c4cn5cccnc5n4)c(=O)oc3c2)CC1 [Compound 118]", "melting point", "252 to 254 °C"),
    ("Cc1cn2cc(-c3cc4ccc(CCNC(C)C)cc4oc3=O)nc2c(C)n1 [Compound 865]", "melting point", "192 to 197 °C"),
    ("CN(C)C1CCN(c2ccc3cc(-c4nc5ccccc5o4)c(=O)oc3c2)C1 (centres unmarked) [Compound 48]", "melting point", "222 to 224 °C"),
    ("Cc1nccn2cc(-c3cc4ccc(N5C[C@@H](C)N[C@@H](C)C5)cc4oc3=O)nc12 [Compound 552]", "melting point", "250 to 258 °C"),
    ("O=c1oc2cc(N3CCN4CCC[C@@H]4C3)ccc2cc1-c1cn2cccc(F)c2n1 [Compound 531]", "melting point", "238 to 241 °C"),
    ("COc1ccc(-c2cc3ccc(N4CCN[C@@H](C)C4)cc3oc2=O)cc1OC [Compound 383]", "melting point", "140 to 143 °C"),
]
